Values from patent US9987278B2

biological target: mutant FLT3 protein (FLT3 D835Y) (Homo sapiens (Human), UniProt P36888, D835Y); experiment: Mutant FLT3 (FLT3 D835Y) enzyme inhibition assay; type: biochemical; conditions: ATP 15 μmol/L, read-out: IC50 value for an enzymatic activity of a mutant FLT3 protein
pIC50: −log10 of the molar value.
pIC50 for assorted compounds

The following compounds have reported results that may help.
* C=CC(=O)N[C@@H](C)C(=O)Nc1cccc(NC(=O)c2cnc(NCCc3ccncc3)nc2NCCC)c1 | > 9.00
* CCCNc1nc(Nc2cccc(C#N)c2)ncc1C#CCCCNC(=O)[C@H](C)N(C)C(=O)/C=C/CN(C)C | 8.00 to 9.00
* C=CC(=O)NCC(=O)Nc1cccc(CNC(=O)c2cnc(NCCc3ccncc3)nc2NCCC)c1 | 8.00 to 9.00
* C=CC(=O)NC(C)(C)C(=O)Nc1cccc(NC(=O)c2cnc(NCCc3ccncc3)nc2NCCC)c1 | > 9.00

Enquiry: For the compound CCCNc1nc(NCCc2ccncc2)ncc1C(=O)NCCC(CC)NC(=O)CNC(=O)/C=C/CN(C)C (centres unmarked) , report pIC50.
Return: > 9.00

Enquiry: For the compound CCCNc1nc(NCCc2ccncc2)ncc1C(=O)Nc1cccc(NC(=O)[C@H](C)N(C)C(=O)/C=C/CN(C)C)c1 , report pIC50.
Return: > 9.00

Enquiry: For the compound CCCNc1nc(NCCc2ccncc2)ncc1C#Cc1cccc(NC(=O)[C@H](C)N(C)C(=O)/C=C/CN(C)C)c1 , report pIC50.
Return: > 9.00

Enquiry: For the compound CCCNc1nc(Nc2ccc(C(N)=O)cc2)ncc1C(=O)Nc1cccc(NC(=O)[C@H](C)N(C)C(=O)/C=C/CN2CC(O)C2)c1 , report pIC50.
Return: > 9.00

Enquiry: For the compound C=CC(=O)N(C)CC(=O)NC(CC)CCNC(=O)c1cnc(NCCc2ccncc2)nc1NCCC (centres unmarked) , report pIC50.
Return: > 9.00

Enquiry: For the compound C=CC(=O)NCCOc1cccc(NC(=O)c2cnc(NCCc3ccncc3)nc2NCCC)c1 , report pIC50.
Return: 8.00 to 9.00

Enquiry: For the compound CCCNc1nc(NCCc2ccncc2)ncc1C(=O)NCCCNC(=O)CNC(=O)/C=C/CN(C)C , report pIC50.
Return: > 9.00

Enquiry: For the compound C[C@@H](C(=O)N[C@H]1C[C@@H](C#Cc2cnc(Nc3ccc(F)cc3)nc2NC2CC2)C1)N(C)C(=O)/C=C/CN(C)C , report pIC50.
Return: > 9.00

Enquiry: For the compound C=CC(=O)NCCNc1cccc(NC(=O)c2cnc(NCCc3ccncc3)nc2NCCC)c1 , report pIC50.
Return: 8.00 to 9.00

Enquiry: For the compound CCCNc1nc(NCCc2ccncc2)ncc1C(=O)Nc1cccc(NC(=O)CNC(=O)/C=C/CN2CCN(CCO)CC2)c1 , report pIC50.
Return: > 9.00

Enquiry: For the compound C=CC(=O)NCC(=O)NC(CC)CCNC(=O)c1cnc(NCCc2ccncc2)nc1NCCC (centres unmarked) , report pIC50.
Return: > 9.00

Enquiry: For the compound CCCNc1nc(NCCc2ccncc2)ncc1C(=O)Nc1ccc(C)c(NC(=O)CNC(=O)/C=C/CN(C)C)c1 , report pIC50.
Return: > 9.00

Enquiry: For the compound CCCNc1nc(Nc2ccc3cnccc3c2)ncc1C(=O)Nc1cccc(NC(=O)[C@H](C)N(C)C(=O)/C=C/CN(C)C)c1 , report pIC50.
Return: > 9.00

Enquiry: For the compound CCCNc1nc(Nc2cccc(F)c2)ncc1C#CCCCNC(=O)[C@H](C)N(C)C(=O)/C=C/CN(C)C , report pIC50.
Return: > 9.00

Enquiry: For the compound CCCNc1nc(Nc2ccc(C(N)=O)cc2)ncc1C(=O)NC1CCCC(NC(=O)CN(C)C(=O)/C=C/CN(C)C)C1 (centres unmarked) , report pIC50.
Return: > 9.00

Enquiry: For the compound C=CC(=O)NCC(=O)NCCCNC(=O)c1cnc(NCCc2ccncc2)nc1NCCC , report pIC50.
Return: > 9.00

Enquiry: For the compound CCCNc1nc(NCCc2ccncc2)ncc1C(=O)Nc1cccc(NC(=O)[C@H](C)NC(=O)/C=C/CN(C)C)c1 , report pIC50.
Return: > 9.00

Enquiry: For the compound C[C@@H](C(=O)Nc1cccc(C#Cc2cnc(NCCc3ccncc3)nc2N2CCOCC2)c1)N(C)C(=O)/C=C/CN(C)C , report pIC50.
Return: > 9.00

Enquiry: For the compound CCCNc1nc(Nc2cccc(F)c2)ncc1C#C[C@H]1C[C@@H](NC(=O)[C@H](C)N(C)C(=O)/C=C/CN(C)C)C1 , report pIC50.
Return: > 9.00

Enquiry: For the compound CNc1nc(Nc2ccc(F)cc2)ncc1C#C[C@H]1C[C@@H](NC(=O)[C@H](C)N(C)C(=O)/C=C/CN(C)C)C1 , report pIC50.
Return: > 9.00

Enquiry: For the compound C=CC(=O)NCC(=O)Nc1cccc(NC(=O)c2cnc(NCCc3ccncc3)nc2NCCC)c1 , report pIC50.
Return: > 9.00

Enquiry: For the compound C=CC(=O)N(C)CC(=O)Nc1cccc(NC(=O)c2cnc(NCCc3ccncc3)nc2NCCC)c1 , report pIC50.
Return: > 9.00

---

Test system: 32D FLT3 D835N cells
Assay: Cell growth assay, 32D FLT3 D835N
Assay type: cell-based
Conditions: Mus musculus, 48 h, FLT3 D835N, 2 days with compound, read-out: GI50 value for growth of FLT3 protein-expressing 32D cells
Method: After the virus-containing culture supernatant was added to the mouse hematopoietic precursor cell line 32D cells in the presence of 10 μg/mL polybrene, and the cells were cultured in the presence of 0.5 ng/mL mouse IL-3. Individual cells were seeded onto a 96-well plate (Becton, Dickinson and Company) at a density of 1000 to 10000 cells/well, and the cell culture was started at 37° C. in the presence of 5% CO2. […]
Attribute measured: GI50

The following molecules have reported results that may help.
* CCCNc1nc(Nc2cccc(F)c2)ncc1C#C[C@H]1C[C@@H](NC(=O)[C@H](C)N(C)C(=O)/C=C/CN(C)C)C1 [Compound 39] | < 1 nM
* C[C@@H](C(=O)N[C@H]1C[C@@H](C#Cc2cnc(Nc3ccc(F)cc3)nc2NC2CC2)C1)N(C)C(=O)/C=C/CN(C)C [Compound 40] | < 1 nM
* CCCNc1nc(Nc2ccc(C#N)cc2)ncc1C#CCCCNC(=O)[C@H](C)N(C)C(=O)/C=C/CN(C)C [Compound 38] | 1 to 10 nM

Enquiry: For the molecule CNc1nc(Nc2ccc(F)cc2)ncc1C#C[C@H]1C[C@@H](NC(=O)[C@H](C)N(C)C(=O)/C=C/CN(C)C)C1 [Compound 41] , report GI50.
Return: 1 to 10 nM

---

test system: 32D FLT3 D835Y cells; assay: Cell growth assay, 32D FLT3 D835Y; format: cell-based; conditions: Mus musculus, 48 h, FLT3 D835Y, 2 days with compound, read-out: GI50 value for growth of FLT3 protein-expressing 32D cells
GI50 for assorted compounds

The following compounds have reported results that may help.
- CCCNc1nc(Nc2ccc(C#N)cc2)ncc1C#CCCCNC(=O)[C@H](C)N(C)C(=O)/C=C/CN(C)C [Compound 38]: < 1 nM
- CNc1nc(Nc2ccc(F)cc2)ncc1C#C[C@H]1C[C@@H](NC(=O)[C@H](C)N(C)C(=O)/C=C/CN(C)C)C1 [Compound 41]: 1 to 10 nM
- CCCNc1nc(Nc2cccc(F)c2)ncc1C#C[C@H]1C[C@@H](NC(=O)[C@H](C)N(C)C(=O)/C=C/CN(C)C)C1 [Compound 39]: 1 to 10 nM

Attention now turns to another entry.
Enquiry: Tell me its GI50 on 32D FLT3 D835Y cells: C[C@@H](C(=O)N[C@H]1C[C@@H](C#Cc2cnc(Nc3ccc(F)cc3)nc2NC2CC2)C1)N(C)C(=O)/C=C/CN(C)C [Compound 40]
Return: < 1 nM

---

biological target: mutant FLT3 protein (FLT3 D835Y) (Homo sapiens (Human), UniProt P36888, D835Y); test: Mutant FLT3 (FLT3 D835Y) enzyme inhibition assay; conditions: ATP 15 μmol/L, read-out: IC50 value for an enzymatic activity of a mutant FLT3 protein
IC50 for assorted molecules

- CCCNc1nc(NCCc2ccncc2)ncc1C(=O)Nc1cccc(NC(=O)CNC(=O)/C=C/CN2CCOCC2)c1: 1 to 10 nM
- CCCNc1nc(NCCc2ccncc2)ncc1C(=O)Nc1cccc(NC(=O)CNC(=O)/C=C/CN2CCN(C)CC2)c1: 1 to 10 nM
- CCCNc1nc(NCCc2ccncc2)ncc1C(=O)NCCC(CC)NC(=O)CN(C)C(=O)/C=C/CN(C)C (centres unmarked): < 1 nM
- CCCNc1nc(Nc2ccc(C(N)=O)cc2)ncc1C(=O)NCCCNC(=O)[C@H](C)N(C)C(=O)/C=C/CN(C)C: < 1 nM
- C=CC(=O)NCC(=O)Nc1ccccc1CNC(=O)c1cnc(NCCc2ccncc2)nc1NCCC: 1 to 10 nM

Enquiry: For the molecule CCCNc1nc(NCCc2ccncc2)ncc1C(=O)Nc1cccc(NC(=O)CNC(=O)/C=C/CN(C)C)c1 , report IC50.
Return: < 1 nM

Enquiry: For the molecule CCCNc1nc(Nc2ccc(C(N)=O)cc2)ncc1C(=O)Nc1cccc(NC(=O)[C@H](C)N(C)C(=O)/C=C/CN(C)C)c1 , report IC50.
Return: < 1 nM

Enquiry: For the molecule CCCNc1nc(Nc2ccc(C(N)=O)cc2)ncc1C#Cc1cccc(NC(=O)[C@H](C)N(C)C(=O)/C=C/CN(C)C)c1 , report IC50.
Return: < 1 nM

Enquiry: For the molecule CCCN(C)c1nc(NCCc2ccncc2)ncc1C#Cc1cccc(NC(=O)[C@H](C)N(C)C(=O)/C=C/CN(C)C)c1 , report IC50.
Return: < 1 nM

Enquiry: For the molecule C=CC(=O)N[C@H](C)C(=O)Nc1cccc(NC(=O)c2cnc(NCCc3ccncc3)nc2NCCC)c1 , report IC50.
Return: 1 to 10 nM

Enquiry: For the molecule C=CC(=O)NCC(=O)N(C)c1cccc(NC(=O)c2cnc(NCCc3ccncc3)nc2NCCC)c1 , report IC50.
Return: 1 to 10 nM
